src = patent US11667602B2

# Test B Human Plasma Protein Binding (% free) listing for each entry below
test: Human Plasma Protein Binding (Test B); type: in vitro ADME; settings: fraction unbound (fu)
PARAMETER MEASURED: Test B Human Plasma Protein Binding (% free)

COMPOUND: COc1cc(F)c(Oc2ccc(C(=O)O)cc2)cc1C(=O)N[C@H]1[C@@H](C(=O)Nc2cccc(S(=O)(=O)C(F)(F)F)c2)[C@@H]2C=C[C@H]1C2 (racemic)
CENSOR SYMBOL: <
VALUE REPORTED: 0.31
//
COMPOUND: COc1cc(F)c(-c2ccc(C[C@@H](N)C(=O)O)cc2)cc1C(=O)N[C@@H]1[C@H]2CC[C@H](C2)[C@@H]1C(=O)Nc1cccc(S(=O)(=O)C(F)(F)F)c1
CENSOR SYMBOL: <
VALUE REPORTED: 1.2
//
COMPOUND: COc1cc(F)c(-c2ccc(C(=O)O)cc2)cc1C(=O)N[C@@H]1[C@H](C(=O)Nc2cccc(S(=O)(=O)C(F)(F)F)c2)[C@H]2C=C[C@@H]1C2 (single isomer, unassigned)
CENSOR SYMBOL: <
VALUE REPORTED: 0.30
//
COMPOUND: COc1cc(F)c(O[C@H]2CC[C@@H](C(=O)O)CC2)cc1C(=O)N[C@@H]1[C@H]2CC[C@H](C2)[C@@H]1C(=O)Nc1cccc(Cl)c1
CENSOR SYMBOL: =
VALUE REPORTED: 0.59
//
COMPOUND: COc1cc(F)c(O[C@H]2CC[C@@](C)(C(=O)O)CC2)cc1C(=O)Nc1ccccc1C(=O)NCC(C)(C)C
CENSOR SYMBOL: =
VALUE REPORTED: 1.2
//
COMPOUND: COc1cc(F)c(O[C@H]2CC[C@@H](C(=O)O)CC2)cc1C(=O)N[C@@H]1[C@@H]2CC[C@@H](C2)[C@@H]1C(=O)Nc1cccc(S(F)(F)(F)(F)F)c1
CENSOR SYMBOL: <
VALUE REPORTED: 0.070
//
COMPOUND: COc1cc(C#N)c(-c2ccc(OCC(=O)O)cc2)cc1C(=O)N[C@@H]1[C@H]2CC[C@H](C2)[C@@H]1C(=O)Nc1cccc(S(=O)(=O)C(F)(F)F)c1
CENSOR SYMBOL: =
VALUE REPORTED: 0.81
